assay: pH stability tests; assay type: physicochemical; conditions: pH 7.4, 5 days
Consider the following molecules; for each one, report its pH stability.

Tell us which pH stability value is on record for COCCOC(=O)NCCO/N=C(\C)CNC(=O)c1ccccc1 <1%

Provide pH stability value for the following molecule: COCCOCNCCO/N=C(\C)CC(=O)c1ccccc1 [drawing 139] <1%

Using the record for COCCOC(=O)NCCO/N=C(\C)COc1ccccc1 , state its measured pH stability. 15%

Supply recorded pH stability for COCCOC(=O)NCCO/N=C(\C)C(=O)Nc1ccccc1 [drawing 138] here. <1%

Specify reported pH stability for the molecule shown: COCCOCNCCO/N=C(\C)CC(=O)c1ccccc1 [drawing 135] 3%

Tell me measured pH stability for COCCOC(=O)NCCO/N=C1\C(=O)Nc2ccccc21 please. <1%

Please report the measured pH stability for COCCOC(=O)NCCO/N=C(\C)C(=O)Nc1ccccc1 [drawing 134] <1%

For the molecule COCCOC(=O)NCCO/N=C(\C)C(=O)c1ccccc1 , give its reported pH stability. <1%

* * *

experiment: pH stability tests; assay type: physicochemical; conditions: pH 6.5, 1 hour
parameter.measured: pH stability

Give the measured pH stability for COCCOC(=O)NCCO/N=C(\C)CNC(=O)c1ccccc1 <1%

For the compound COCCOC(=O)NCCO/N=C(\C)C(=O)c1ccccc1 , give its reported pH stability. <1%

Indicate the recorded pH stability value for this compound: COCCOCNCCO/N=C(\C)CC(=O)c1ccccc1 [drawing 135] <1%

Hello, please tell me recorded pH stability for this one: COCCOCNCCO/N=C(\C)CC(=O)c1ccccc1 [drawing 139] 6.5%

Supply reported pH stability belonging to this compound: COCCOC(=O)NCCO/N=C(\C)C(=O)Nc1ccccc1 [drawing 134] <1%

Please list pH stability recorded for the compound COCCOC(=O)NCCO/N=C(\C)COc1ccccc1 <1%

For COCCOC(=O)NCCO/N=C1\C(=O)Nc2ccccc21 , write its pH stability. <1%

Consider the compound COCCOC(=O)NCCO/N=C(\C)C(=O)Nc1ccccc1 [drawing 138] and give its recorded pH stability. 6.5%

* * *

Please go through the items and note down their pH stability.
experiment: pH stability tests; type: physicochemical; conditions: pH 4.0, 7 days

// fetch pH stability given entry COCCOC(=O)NCCO/N=C(\C)C(=O)Nc1ccccc1 [drawing 138] <1%

Give a short answer stating reported pH stability for COCCOCNCCO/N=C(\C)CC(=O)c1ccccc1 [drawing 135] . 2%

For the molecule COCCOCNCCO/N=C(\C)CC(=O)c1ccccc1 [drawing 139] , give its measured pH stability value. <1%

Given COCCOC(=O)NCCO/N=C(\C)C(=O)c1ccccc1 , respond with its pH stability. <1%

Report pH stability for COCCOC(=O)NCCO/N=C(\C)COc1ccccc1 9%

Tell me its pH stability given COCCOC(=O)NCCO/N=C1\C(=O)Nc2ccccc21 as the entry. <1%

Answer with reported pH stability of COCCOC(=O)NCCO/N=C(\C)CNC(=O)c1ccccc1 11%

Answer with the recorded pH stability of COCCOC(=O)NCCO/N=C(\C)C(=O)Nc1ccccc1 [drawing 134] only. <1%

* * *

assay: pH stability tests; format: physicochemical; conditions: pH 7.4, 7 days
parameter.measured: pH stability

Return value of pH stability for input COCCOC(=O)NCCO/N=C(\C)C(=O)Nc1ccccc1 [drawing 134] , no commentary. <1%

# return recorded pH stability for entry COCCOC(=O)NCCO/N=C(\C)C(=O)c1ccccc1 <1%

Give reported pH stability value for COCCOCNCCO/N=C(\C)CC(=O)c1ccccc1 [drawing 139] <1%

Fill in pH stability for record COCCOC(=O)NCCO/N=C1\C(=O)Nc2ccccc21 <1%

Tell me measured pH stability for COCCOCNCCO/N=C(\C)CC(=O)c1ccccc1 [drawing 135] please. 7%

Give pH stability for the following compound: COCCOC(=O)NCCO/N=C(\C)CNC(=O)c1ccccc1 <1%

In one line, give reported pH stability of the entry COCCOC(=O)NCCO/N=C(\C)COc1ccccc1 . 15%

Give pH stability for COCCOC(=O)NCCO/N=C(\C)C(=O)Nc1ccccc1 [drawing 138] <1%
